Target: human P2Y12 receptor (Homo sapiens, UniProt Q9H244)
Construct: expressed in transfected cells; host or cells: CHO cells
Sequence (Q9H244 whole entry): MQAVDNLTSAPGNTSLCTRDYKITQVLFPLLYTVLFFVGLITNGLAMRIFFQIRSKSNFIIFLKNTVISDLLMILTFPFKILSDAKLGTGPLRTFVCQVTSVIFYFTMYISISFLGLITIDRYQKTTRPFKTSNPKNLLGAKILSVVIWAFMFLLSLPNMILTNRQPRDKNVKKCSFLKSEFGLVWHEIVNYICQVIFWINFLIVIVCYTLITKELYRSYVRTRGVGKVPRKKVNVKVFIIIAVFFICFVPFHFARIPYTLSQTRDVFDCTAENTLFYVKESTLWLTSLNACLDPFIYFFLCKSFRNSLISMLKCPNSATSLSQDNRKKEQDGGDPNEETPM
Assay: P2Y12 receptor binding assay
Conditions: CHO cells with recombinant expression of the human P2Y12 receptor; tritium-labeled 2-methyl-S-ADP; RT, 2 hours
MEASUREMENT TYPE: pIC50
Bear in mind: pIC50 is minus log10 of a mol/L concentration; give just that figure.

Example compounds with recorded pIC50:
COMPOUND | ASSAY TARGET | pIC50
CCCCOC(=O)N1CCN(C(=O)[C@H](CP(=O)(OCC)OCC)NC(=O)c2nc(-c3ccccc3)sc2N(C)CCCC)CC1 [Example 46] | human P2Y12 receptor (Homo sapiens, UniProt Q9H244) | 6.09
CCCCOC(=O)N1CCN(C(=O)[C@H](CP(=O)(O)O)NC(=O)c2nc(-c3ccccc3)sc2N(C)CCCC)CC1 [Example 47] | human P2Y12 receptor (Homo sapiens, UniProt Q9H244) | 8.52
CCCCOC(=O)N1CCN(C(=O)[C@H](CP(=O)(O)O)NC(=O)c2nc(-c3ccccc3)c(-c3ccccc3)s2)CC1 [Example 49] | human P2Y12 receptor (Homo sapiens, UniProt Q9H244) | 6.82

In plain terms, CCCCOC(=O)N1CCN(C(=O)[C@H](CCC(=O)O)NC(=O)c2csc(-c3ccccc3OC)n2)CC1 [Example 5] has a documented pIC50 of 6.33
